Target: T1, p58C266-464 (DNA primase regulatory subunit C-terminal domain) (human, UniProt P49643 266-464)
T1 sequence: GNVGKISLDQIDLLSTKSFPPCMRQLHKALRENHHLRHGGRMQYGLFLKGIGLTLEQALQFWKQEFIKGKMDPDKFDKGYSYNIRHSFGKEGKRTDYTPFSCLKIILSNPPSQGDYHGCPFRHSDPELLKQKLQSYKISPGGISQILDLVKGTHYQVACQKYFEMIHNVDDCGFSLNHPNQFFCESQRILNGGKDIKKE
Experiment: fluorescence intensity (Monolith MST instrument); 20 mM MES pH 6.5, 50 mM NaCl, 2 mM DTT (plus 0.05% Tween for FI), 50 nM substrate, 25 C; 15 min incubation at room temperature
Details: protein: recombinant; tags: 6xHis tag cleaved with H3C protease; label: 5'-Cy5 on DNA template; 8 bp RNA-DNA hybrid; template 5' overhang 4 nt and 3' overhang 6 nt
Attribute Measured: Kd (µM)
The answer is to be given in µM; state only the numeric part.

Qu. Can you look up the measured Kd of MST/FI substrate: 8 nt RNA-primed 18 nt DNA template (DNA:RNA, 5'-triphosphate on RNA primer) RNA: GGCUCGGA DNA: AAACTCCGAGCCAACATA for me?
Ans. 3.4
